B1: WSB1 (parent)
chain: DLKDDGNMMKVLRGHQNWVYSCAF

- Variants of: B1
- method: protein stability index of a GFP-peptide fusion (GPS, HEK-293T) (PSI 1-6); higher = more stable;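 note: lentivirally expressed fusions sorted by FACS into six bins by GFP to DsRed ratio, PSI derived from sequencing read proportions per bin multiplied by bin number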
- measurement-parameters: c terminus: a fixed tail appended
endpoint-label: protein stability index
API doc: respond with a numeric literal and nothing else, no unit.

// known answers, use as guide
1) F24H : 3.34
2) N7R : 1.71
3) L2P : 1.82
4) D5G : 1.68
5) K10L : 2.53
6) D4M : 2.4

If you can, please state the reported protein stability index value of S21G .
2.27

Also M8I ?
2.03

Also V11Y ?
2.26

Also M9V ?
1.27

Also G14H ?
1.81

Also D5N ?
2.04

Also D1E ?
2.24

Also C22F ?
2.98
